test system: A549 cells; assay: Apoptotic activity by MTT analysis, A549 cells; assay type: cell-based; details: Homo sapiens, A549, 12 h, 15 μM of the compound, mean±standard deviation, read-out: Apoptosis (%) A549 cells
# key: entry, value: cytotoxicity at 15 µM
Value expressed in %; do not type the unit.

Cc1ccc(-c2nc(-c3cccc(C(F)(F)F)c3)n(Cc3ccc(C(=O)NCCOCCOCCN)cc3)c2-c2ccc(C)cc2)cc1
64
COc1ccc(-c2nc(-c3cc(OC)cc(OC)c3)n(Cc3ccc(C(=O)NCCOCCOCCN)cc3)c2-c2ccc(OC)cc2)cc1
37

--- query ---
Query: Consider the compound COC(=O)c1cc(C(=O)OC)cc(-c2nc(-c3ccc(OC)cc3)c(-c3ccc(OC)cc3)n2Cc2ccc(C(=O)NCCOCCOCCN)cc2)c1 . State its measured cytotoxicity at 15 µM.
Response: 37

###

tested on: A549 cells; assay: Apoptotic activity by MTT analysis, A549 cells; assay type: cell-based; conditions: Homo sapiens, A549, 12 h, 15 μM of the compound, mean±standard deviation, read-out: Apoptosis (%) A549 cells
# key: entry, value: cytotoxicity at 15 µM
Respond with a number, then the unit of measure.

COc1ccc(-c2nc(-c3cc(C(F)(F)F)cc(C(F)(F)F)c3)n(Cc3ccc(C(=O)NCCOCCCOCCN)cc3)c2-c2ccc(OC)cc2)cc1 [Example 196]
0%
COc1cccc(-c2nc(-c3cc(C(F)(F)F)cc(C(F)(F)F)c3)n(Cc3ccc(C(=N)N)cc3)c2-c2cccc(OC)c2)c1 [Example 182]
49%

--- query ---
Query: Consider the compound COc1ccc(-c2nc(-c3cc(C(F)(F)F)cc(C(F)(F)F)c3)n(Cc3ccc(C(=O)NCCCCCCCCCCN)cc3)c2-c2ccc(OC)cc2)cc1 [Example 197] . State its measured cytotoxicity at 15 µM.
Response: 96%

###

system: A549 cells; test: Apoptotic activity by MTT analysis, A549 cells; format: cell-based; conditions: Homo sapiens, A549, 12 h, 15 μM of the compound, mean±standard deviation, read-out: Apoptosis (%) A549 cells
Entries whose cytotoxicity at 15 µM is below 40% take rule met; entries at or above 40% take rule not met.

Query: Consider COc1ccc(-c2nc(-c3ccc(C(F)(F)F)cc3C(F)(F)F)n(Cc3ccc(C(=O)NCCOCCOCCN)cc3)c2-c2ccc(OC)cc2)cc1 [Example 44] . Does its cytotoxicity at 15 µM lie strictly below 40%?
Response: rule met

Query: Consider N=C(N)c1ccc(Cn2c(-c3cc(C(F)(F)F)cc(C(F)(F)F)c3)nc(-c3ccccc3)c2-c2ccccc2)cc1 [Example 184] . Does its cytotoxicity at 15 µM lie strictly below 40%?
Response: rule not met

Query: Consider NCCOCCOCCNC(=O)c1ccc(Cn2c(-c3cccc(C(F)(F)F)c3)nc(-c3ccc(Br)cc3)c2-c2ccc(Br)cc2)cc1 [Example 2] . Does its cytotoxicity at 15 µM lie strictly below 40%?
Response: rule not met

Query: Consider NCCOCCOCCNC(=O)c1ccc(Cn2c(-c3cc(C(F)(F)F)cc(C(F)(F)F)c3)nc(-c3ccc4c(c3)OCO4)c2-c2ccc3c(c2)OCO3)cc1 [Example 103] . Does its cytotoxicity at 15 µM lie strictly below 40%?
Response: rule met

Query: Consider NCCOCCOCCNC(=O)c1ccc(Cn2c(-c3cc(C(F)(F)F)cc(C(F)(F)F)c3)nc(-c3ccccc3Cl)c2-c2ccccc2Cl)cc1 [Example 123] . Does its cytotoxicity at 15 µM lie strictly below 40%?
Response: rule met

Query: Consider NCCOCCOCCNC(=O)c1ccc(Cn2c(-c3cc(C(F)(F)F)cc(C(F)(F)F)c3)nc(-c3ccc(F)cc3)c2-c2ccc(F)cc2)cc1 [Example 188] . Does its cytotoxicity at 15 µM lie strictly below 40%?
Response: rule met

###

system: A549 cells; assay: Apoptotic activity by MTT analysis, A549 cells; format: cell-based; details: Homo sapiens, A549, 12 h, 15 μM of the compound, mean±standard deviation, read-out: Apoptosis (%) A549 cells
# key: entry, value: cytotoxicity at 15 µM
Value expressed in %; do not type the unit.

Consider the reported cytotoxicity at 15 µM for these compounds:
COc1ccc(-c2nc(-c3cc(C(F)(F)F)cc(C(F)(F)F)c3)n(Cc3ccc(C(=O)NCCCCCCCN)cc3)c2-c2ccc(OC)cc2)cc1
80
COc1ccc(-c2nc(-c3cccc(C(F)(F)F)c3)n(Cc3ccc(C(=O)NCCOCCOCCN)cc3)c2-c2ccc(OC)cc2F)c(F)c1
58
N=C(N)c1ccc(Cn2c(-c3cc(C(F)(F)F)cc(C(F)(F)F)c3)nc(-c3ccc(Br)cc3)c2-c2ccc(Br)cc2)cc1
93
Cc1ccc(-c2nc(-c3cc(C(F)(F)F)cc(C(F)(F)F)c3)n(Cc3ccc(C(=N)N)cc3)c2-c2ccc(C)cc2)cc1
56
COc1ccc(-c2nc(-c3cc(C(F)(F)F)cc(C(F)(F)F)c3)n(Cc3ccc(C(=O)NCCCCCCCCN)cc3)c2-c2ccc(OC)cc2)cc1
77

Query: Return reported cytotoxicity at 15 µM for target or system A549 cells, item COc1ccc(-c2nc(-c3cc(C(F)(F)F)cc(C(F)(F)F)c3)n(Cc3ccc(C(=O)NCCOCCOCCO)cc3)c2-c2ccc(OC)cc2)cc1 .
Response: 86

Query: Return reported cytotoxicity at 15 µM for target or system A549 cells, item NCCOCCOCCNC(=O)c1ccc(Cn2c(-c3cc(C(F)(F)F)cc(C(F)(F)F)c3)nc(-c3ccc4ncccc4c3)c2-c2ccc3ncccc3c2)cc1 .
Response: 38

###

test system: HeLa cells; experiment: Apoptotic activity by MTT analysis, HeLa cells; assay type: cell-based; details: 15 μM of the compound, 12 hours, mean±standard deviation
Parameter: Apoptosis (%) HeLa cells
Value expressed in %; do not type the unit.

Consider the reported Apoptosis (%) HeLa cells for these compounds:
NCCOCCOCCNC(=O)c1ccc(Cn2c(-c3cc(C(F)(F)F)cc(C(F)(F)F)c3)nc(-c3ccc(Cl)cc3)c2-c2ccc(Cl)cc2)cc1 [Example 189]
86
COc1ccc(-c2nc(-c3cc(OC)c(OC)c(OC)c3)n(Cc3ccc(C(=O)NCCOCCOCCN)cc3)c2-c2ccc(OC)cc2)cc1
29
COC(=O)c1cc(C(=O)OC)cc(-c2nc(-c3ccc(OC)cc3)c(-c3ccc(OC)cc3)n2Cc2ccc(C(=O)NCCOCCOCCN)cc2)c1
37

--- query ---
Query: Consider the compound NCCOCCOCCNC(=O)c1ccc(Cn2c(-c3cc(C(F)(F)F)cc(C(F)(F)F)c3)nc(-c3ccc(Cl)cc3)c2-c2ccc(Cl)cc2)cc1 [Example 49] . State its measured Apoptosis (%) HeLa cells.
Response: 26

###

system: A549 cells; assay: Apoptotic activity by MTT analysis, A549 cells; format: cell-based; details: Homo sapiens, A549, 12 h, 15 μM of the compound, mean±standard deviation, read-out: Apoptosis (%) A549 cells
Parameter: cytotoxicity at 15 µM
Respond with a number, then the unit of measure.

COc1ccc(-c2nc(-c3cc(C(F)(F)F)cc(C(F)(F)F)c3)n(Cc3ccc(C(=O)NCCCCCCCCCN)cc3)c2-c2ccc(OC)cc2)cc1
80%

Query: Consider the molecule COc1ccc(-c2nc(-c3cc(C(F)(F)F)cc(C(F)(F)F)c3)n(Cc3ccc(C(=O)NO)cc3)c2-c2ccc(OC)cc2)cc1 . State its measured cytotoxicity at 15 µM.
Response: 43%

Query: Consider the molecule COc1ccc(-c2nc(-c3cc(C(F)(F)F)cc(C(F)(F)F)c3)n(Cc3ccc(C(=O)NCCOCCOCCOCCN)cc3)c2-c2ccc(OC)cc2)cc1 . State its measured cytotoxicity at 15 µM.
Response: 85%

###

tested on: A549 cells; test: Apoptotic activity by MTT analysis, A549 cells; type: cell-based; details: Homo sapiens, A549, 12 h, 15 μM of the compound, mean±standard deviation, read-out: Apoptosis (%) A549 cells
Parameter: cytotoxicity at 15 µM (%)
Value expressed in %; do not type the unit.

COc1ccc(-c2nc(-c3ccc4c(c3)-c3ccccc3C4)n(Cc3ccc(C(=N)N)cc3)c2-c2ccc(OC)cc2)cc1
42
COc1ccc(-c2nc(-c3cc(C(F)(F)F)cc(C(F)(F)F)c3)n(Cc3ccc(C(=O)NCCOCCN)cc3)c2-c2ccc(OC)cc2)cc1
72

--- query ---
Query: Consider the compound NCCOCCOCCNC(=O)c1ccc(Cn2c(-c3ccc(C(F)(F)F)cc3)nc(-c3ccccc3)c2-c2ccccc2)cc1 . State its measured cytotoxicity at 15 µM.
Response: 77

###

test system: A549 cells; test: Apoptotic activity by MTT analysis, A549 cells; assay type: cell-based; conditions: Homo sapiens, A549, 12 h, 15 μM of the compound, mean±standard deviation, read-out: Apoptosis (%) A549 cells
# key: entry, value: cytotoxicity at 15 µM
Value expressed in %; do not type the unit.

Query: Consider the compound COc1ccc(-c2nc(-c3cc(OC)c(OC)c(OC)c3)n(Cc3ccc(C(=O)NCCOCCOCCN)cc3)c2-c2ccc(OC)cc2)cc1 [Example 48] . State its measured cytotoxicity at 15 µM.
Response: 23

Query: Consider the compound COc1ccc(-c2nc(-c3cc(C#N)cc(C#N)c3)n(Cc3ccc(C(N)=O)cc3)c2-c2ccc(OC)cc2)cc1 [Example 108] . State its measured cytotoxicity at 15 µM.
Response: 2

Query: Consider the compound COc1ccc(-c2nc(-c3cc(C(F)(F)F)cc(C(F)(F)F)c3)n(Cc3ccc(/C(N)=N/O)cc3)c2-c2ccc(OC)cc2)cc1 [Example 186] . State its measured cytotoxicity at 15 µM.
Response: 5

Query: Consider the compound COc1ccc(-c2nc(-c3cc(C(F)(F)F)cc(C(F)(F)F)c3)n(Cc3ccc(C(N)=S)cc3)c2-c2ccc(OC)cc2)cc1 [Example 118] . State its measured cytotoxicity at 15 µM.
Response: 50

Query: Consider the compound COc1ccc(-c2nc(-c3ccc(C(F)(F)F)cc3)n(Cc3ccc(C(=O)NCCOCCOCCN)cc3)c2-c2ccc(OC)cc2)cc1 [Example 43] . State its measured cytotoxicity at 15 µM.
Response: 36

Query: Consider the compound NCCOCCOCCNC(=O)c1ccc(Cn2c(-c3cc(C(F)(F)F)cc(C(F)(F)F)c3)nc(-c3ccc4ccccc4c3)c2-c2ccc3ccccc3c2)cc1 [Example 105] . State its measured cytotoxicity at 15 µM.
Response: 39

Query: Consider the compound COc1cccc(-c2nc(-c3cccc(C(F)(F)F)c3)n(Cc3ccc(C(=O)NCCOCCOCCN)cc3)c2-c2cccc(OC)c2)c1 [Example 11] . State its measured cytotoxicity at 15 µM.
Response: 81

meta.source: patent US20160297768A1
